Test system: OVCAR-8 ovarian
Assay: NCI-60 one-dose screen, 48 h (100 = growth as untreated, 0 = no growth, -100 = all killed)
Conditions: 10 µM unless noted
Compounds without any hit were thinned out: in the full panel of roughly 83,000, 20% have a hit. Calls of active or inactive are those of the source. How the source made its calls: active means growth percent below 10; inactive means the rest.
quantityKind: growth

I have 4 compounds here; please give me growth for each one.
1. O=C1/C(=C/c2ccc(Cl)cc2)COc2ccc(O)c(O)c21
2. CCOC(=O)c1c(C)nc2c(c1N)CC(=O)N2Cc1cc(F)cc(Cl)c1
3. Cn1ccc2c3c(ccc21)CC3=O
4. Cn1ccnc1C(=O)C(=O)Nc1ccc(CC(=O)Nc2ccccc2)cc1

Reply:
1: 4.8% (active); 2: 95.9% (inactive); 3: 107% (inactive); 4: 109% (inactive)

I have 5 compounds here; please give me growth for each one.
1. CCN(CC)CCCN1C(=O)c2c(c(C)c3c(oc4cc(O)ccc43)c2C)C1=O
2. O=C1N[C@@H]2NC(=[N+]3CCOCC3)N[C@@H]2N1
3. C=CCn1c(SCC(=O)NCc2cc(C)c(O)c(C)c2)nc2ccc(Cl)cc2c1=O
4. O=C(c1ccccc1)C1C(=O)N2C(=S)N(c3ccccc3)C(=O)C2C1c1ccc(Cl)cc1 (stereo not given)
5. Cc1cc2c([nH]1)CSc1cc(S(=O)(=O)c3ccccc3)c(=O)[nH]c1-2

Reply:
-39.4% (active)
105% (inactive)
106% (inactive)
94.8% (inactive)
24.3% [100 µM] (inactive)

Task item: # assay system OVCAR-8 ovarian: give growth of "CN(C)CCNC(=O)c1cccc(-c2cnc3ccc(-c4ccc5c(c4)OCO5)nn23)c1"
Reply: 88.6% (inactive)
